# study.target: Nitric oxide synthase, inducible (Mus musculus, UniProt P29477)
# Sequence (P29477 whole entry): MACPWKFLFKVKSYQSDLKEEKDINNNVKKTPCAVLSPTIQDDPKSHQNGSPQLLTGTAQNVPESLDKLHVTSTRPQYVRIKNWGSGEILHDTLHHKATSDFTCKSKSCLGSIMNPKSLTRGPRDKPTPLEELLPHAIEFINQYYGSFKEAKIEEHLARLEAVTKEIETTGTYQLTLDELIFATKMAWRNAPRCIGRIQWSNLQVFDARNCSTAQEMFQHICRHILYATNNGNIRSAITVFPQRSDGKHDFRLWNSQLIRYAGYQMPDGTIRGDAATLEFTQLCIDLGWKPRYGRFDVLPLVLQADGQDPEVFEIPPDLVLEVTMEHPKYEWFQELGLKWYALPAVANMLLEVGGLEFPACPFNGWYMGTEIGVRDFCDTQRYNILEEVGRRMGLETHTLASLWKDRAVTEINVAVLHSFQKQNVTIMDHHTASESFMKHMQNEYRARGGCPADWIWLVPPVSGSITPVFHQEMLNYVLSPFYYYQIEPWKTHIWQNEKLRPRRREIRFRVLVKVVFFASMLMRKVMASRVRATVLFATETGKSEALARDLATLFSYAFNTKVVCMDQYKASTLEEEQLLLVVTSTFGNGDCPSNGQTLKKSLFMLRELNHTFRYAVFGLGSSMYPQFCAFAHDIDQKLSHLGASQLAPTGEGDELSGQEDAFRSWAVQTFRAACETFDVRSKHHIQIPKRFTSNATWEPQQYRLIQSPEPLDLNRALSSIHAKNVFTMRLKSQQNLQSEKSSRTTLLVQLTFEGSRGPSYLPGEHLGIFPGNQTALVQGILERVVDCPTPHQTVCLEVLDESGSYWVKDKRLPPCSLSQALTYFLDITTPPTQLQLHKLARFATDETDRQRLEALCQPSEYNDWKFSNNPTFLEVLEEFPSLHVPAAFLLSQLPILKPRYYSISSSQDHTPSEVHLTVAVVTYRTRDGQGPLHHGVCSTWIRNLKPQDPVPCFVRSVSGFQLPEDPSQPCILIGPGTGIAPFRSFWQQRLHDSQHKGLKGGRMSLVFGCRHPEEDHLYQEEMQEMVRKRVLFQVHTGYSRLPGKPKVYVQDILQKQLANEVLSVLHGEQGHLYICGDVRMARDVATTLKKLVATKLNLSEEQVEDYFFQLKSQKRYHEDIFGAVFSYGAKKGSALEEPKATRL
Where a SMILES comes first, the peptide text is derived from it. [ ]: non-standard residue; d: D form. The star is where a group is joined. dArg(NO2) = N=C(NCCC[C@@H](N)C(=O)O)N[N+](=O)[O-]; Arg(NO2) = N=C(NCCC[C@H](N)C(=O)O)N[N+](=O)[O-]; OBn = c1ccc(CO*)cc1
Can you tell me log10 Ki for the items I'm about to list?
Please keep in mind that the values are log10 of Ki expressed in µM.

Example entries begin here.
Enquiry: Given the entry COC(=O)[C@H](CCC/N=C(\N)N[N+](=O)[O-])NC(=O)[C@@H](N)Cc1ccccc1 , report its measured log10 Ki.
Return: 2.31

Enquiry: What about N/C(=N\CCC[C@H](N)C(=O)N[C@@H](Cc1ccccc1)C(=O)OCc1ccccc1)N[N+](=O)[O-] ?
Return: 1.26

Enquiry: What about COC(=O)[C@@H](Cc1ccccc1)NC(=O)[C@H](N)CCCNC(=N)N[N+](=O)[O-] ?
Return: 3.81

Hi there! I need log10 Ki for each item below, if you can.
1. COC(=O)[C@@H](Cc1ccccc1)NC(=O)[C@@H](N)CCC/N=C(\N)N[N+](=O)[O-]
2. N/C(=N\CCC[C@H](NC(=O)[C@@H](N)Cc1ccccc1)C(=O)OCc1ccccc1)N[N+](=O)[O-] (H-Phe-[Arg(NO2)]-OBn)
3. N/C(=N\CCC[C@@H](NC(=O)[C@H](N)Cc1ccccc1)C(=O)O)N[N+](=O)[O-] (H-[dF]-[dArg(NO2)]-OH)

Return:
1: 2.00; 2: 1.65; 3: 4.13

====

# study.target: Nitric oxide synthase, inducible (Mus musculus)
# Sequence (P29477 whole entry): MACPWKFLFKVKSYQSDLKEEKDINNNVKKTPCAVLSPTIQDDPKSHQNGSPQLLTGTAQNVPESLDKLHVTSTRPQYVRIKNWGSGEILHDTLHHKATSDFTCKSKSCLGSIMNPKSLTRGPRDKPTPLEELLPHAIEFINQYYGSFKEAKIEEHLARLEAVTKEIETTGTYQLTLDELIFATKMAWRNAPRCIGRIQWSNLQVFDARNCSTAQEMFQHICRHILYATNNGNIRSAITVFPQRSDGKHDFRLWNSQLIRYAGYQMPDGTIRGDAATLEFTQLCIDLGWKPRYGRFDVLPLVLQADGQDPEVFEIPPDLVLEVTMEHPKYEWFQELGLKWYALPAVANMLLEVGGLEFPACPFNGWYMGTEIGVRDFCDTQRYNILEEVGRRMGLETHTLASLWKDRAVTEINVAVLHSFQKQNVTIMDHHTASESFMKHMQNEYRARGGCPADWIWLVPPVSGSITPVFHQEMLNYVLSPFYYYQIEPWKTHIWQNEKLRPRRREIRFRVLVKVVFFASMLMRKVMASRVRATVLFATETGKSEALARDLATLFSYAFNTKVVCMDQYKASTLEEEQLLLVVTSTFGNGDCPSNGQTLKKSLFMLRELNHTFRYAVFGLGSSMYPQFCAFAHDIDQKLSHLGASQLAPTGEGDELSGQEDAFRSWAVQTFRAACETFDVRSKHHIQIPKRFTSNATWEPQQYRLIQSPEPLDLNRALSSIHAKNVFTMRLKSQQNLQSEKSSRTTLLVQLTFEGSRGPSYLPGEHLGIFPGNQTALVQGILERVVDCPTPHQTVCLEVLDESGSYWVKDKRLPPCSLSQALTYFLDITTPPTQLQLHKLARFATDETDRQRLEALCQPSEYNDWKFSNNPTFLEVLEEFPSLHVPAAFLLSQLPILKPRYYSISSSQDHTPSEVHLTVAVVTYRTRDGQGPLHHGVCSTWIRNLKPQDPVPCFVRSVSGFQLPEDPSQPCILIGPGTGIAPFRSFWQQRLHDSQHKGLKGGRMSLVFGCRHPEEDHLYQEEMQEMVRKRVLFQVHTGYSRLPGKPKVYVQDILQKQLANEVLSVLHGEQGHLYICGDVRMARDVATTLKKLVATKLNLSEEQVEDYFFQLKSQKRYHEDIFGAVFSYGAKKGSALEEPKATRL
Where a SMILES comes first, the peptide text is derived from it. [ ]: non-standard residue; d: D form. Arg(NO2) = N=C(NCCC[C@H](N)C(=O)O)N[N+](=O)[O-]
Can you tell me Ki for the items I'm about to list?
# output: numeric value plus its unit

Example entries begin here.
Enquiry: Given the entry COC(=O)[C@@H](CCC/N=C(\N)N[N+](=O)[O-])NC(=O)[C@@H](N)Cc1ccccc1 , report its measured Ki.
Return: 7500 µM

Enquiry: What about COC(=O)[C@H](Cc1ccccc1)NC(=O)[C@@H](N)CCC/N=C(\N)N[N+](=O)[O-] ?
Return: 45 µM

Enquiry: What about N/C(=N\CCC[C@H](N)C(=O)N[C@@H](Cc1ccccc1)C(=O)O)N[N+](=O)[O-] ?
Return: 160 µM

Further cases:
Enquiry: Given the entry N=C(NCCC[C@H](NC(=O)[C@@H](N)Cc1ccccc1)C(=O)O)N[N+](=O)[O-] (H-Phe-[Arg(NO2)]-OH) , report its measured Ki.
Return: 93 µM
